Test system: Chlorella vulgaris
Run Description: Algicidal assay, MIC against Chlorella in modified Allen's medium
Type: cell-based
Settings: Table III, 14 days, 26 to 28° C, no unit in table (ppm)
Quantity Name: MIC
Lab note: write the figure by itself, no unit.

Challenge: Output measured MIC for this item: [I][Hg][CH2]C1Cc2ccccc2O1 (stereo not drawn)
Response given: 10

Challenge: Input CC(=O)[O][Hg][CH2]C1Cc2ccccc2O1 (stereo not drawn) , output reported MIC.
Response given: 10

Challenge: Specify MIC for Cc1cc(=O)oc2c(C)c3c(cc12)CC([CH2][Hg][I])O3 (stereo not drawn) and stop.
Response given: 9

Challenge: Give the value of MIC reported for the following: [Cl][Hg][CH2]C1Cc2ccccc2O1 (stereo not drawn)
Response given: 10

Challenge: // Input: Cc1cc(=O)oc2c(C)c3c(cc12)CC([CH2][Hg][Cl])O3 (stereo not drawn) . Output its MIC only.
Response given: 10

Challenge: Tell us which MIC value is on record for CC(=O)[O][Hg][CH2]C1Cc2cc3c(C)cc(=O)oc3c(C)c2O1 (stereo not drawn)
Response given: 10
